Collected Pre-emergence herbicidal damage score, ECHCG values appear next to each entry.
Test system: a variety of test species
Assay: Pre-emergence herbicidal activity (glasshouse, sprayed one day after sowing, evaluated after 13 days)
Assay type: in vivo
Set-up: key: 5=total damage to plant; 0=no damage to plant
Details: ECHCG, application pre-emergence, rate 1000 g/Ha, scale 0-5
experimental endpoint: Pre-emergence herbicidal damage score, ECHCG

{"molecule": "CCC1=C(Cl)C(=O)N(c2noc(C(C)C)c2C#N)C1O (stereo not shown)", "meas value": 5}
{"molecule": "COC1=C(Cl)CN(c2cc(C(C)(C)C)on2)C1=O", "meas value": 3}
{"molecule": "CC1=C(Cl)C(=O)N(c2cc(C(C)C)on2)C1O (stereo not shown)", "meas value": 5}
{"molecule": "C=CCC(C)(C)c1cc(N2C(=O)C(Cl)=C(C)C2O)no1 (stereo not shown)", "meas value": 5}
{"molecule": "CC1=C(Cl)C(=O)N(c2noc(C(C)C)c2C#N)C1O (stereo not shown)", "meas value": 4}
{"molecule": "CCC(C)(CC#N)c1cc(N2C(=O)C(Cl)=C(C)C2O)no1 (stereo not shown)", "meas value": 5}
{"molecule": "CC(=O)OC1C(C)=C(Cl)C(=O)N1c1noc(C(C)(C)C)c1C#N (stereo not shown)", "meas value": 5}
{"molecule": "CCC(C)c1onc(N2C(=O)C(Cl)=C(C)C2O)c1C#N (stereo not shown)", "meas value": 4}
{"molecule": "CCOC1=C(C)C(O)N(c2cc(C(C)(C)C#N)on2)C1=O (stereo not shown)", "meas value": 5}
{"molecule": "CC1=C(Cl)C(=O)N(c2cc(C(C)(C)C)on2)C1OC(=O)OCC(C)C (stereo not shown)", "meas value": 5}
{"molecule": "CC1=C(Cl)C(=O)N(c2cc(C3CC3)on2)C1O (stereo not shown)", "meas value": 5}
{"molecule": "COC(=O)OC1C(C)=C(Cl)C(=O)N1c1cc(C(C)(C)C)on1 (stereo not shown)", "meas value": 5}
{"molecule": "COC1=C(Cl)C(=O)N(c2cc(C(C)(C)C)on2)C1O (stereo not shown)", "meas value": 5}
{"molecule": "COC1=C(C)C(=O)N(c2cc(C)on2)C1O (stereo not shown)", "meas value": 3}
{"molecule": "CCC1=C(Cl)C(=O)N(c2cc(C(C)(C)C)on2)C1O (stereo not shown)", "meas value": 5}
{"molecule": "COCC(C)(C)c1cc(N2C(=O)C(Br)=C(C)C2O)no1 (stereo not shown)", "meas value": 4}
{"molecule": "CCOc1cc(N2C(=O)C(Cl)=C(C)C2O)no1 (stereo not shown)", "meas value": 3}
{"molecule": "CN(C)C1=C(Cl)C(=O)N(c2cc(C(C)(C)C)on2)C1O (stereo not shown)", "meas value": 2}
{"molecule": "CC1=C(Cl)C(=O)N(c2cc(C(C)(C)C)on2)C1O (stereo not shown)", "meas value": 5}
{"molecule": "CCC(C)(C)c1cc(N2C(=O)C(Cl)=C(C)C2O)no1 (stereo not shown)", "meas value": 5}
{"molecule": "CC1=C(Cl)C(=O)N(c2cc(C(C)(C)C)on2)C1OC(=O)c1ccc(C(F)(F)F)nc1 (stereo not shown)", "meas value": 1}
{"molecule": "CC1=C(Br)C(=O)N(c2noc(C(C)(C)C)c2C#N)C1O (stereo not shown)", "meas value": 4}
{"molecule": "CC(C)(C)c1cc(N2C(=O)C(Cl)=C(C3CC3)C2O)no1 (stereo not shown)", "meas value": 4}
{"molecule": "CCC(C)(CC)c1onc(N2C(=O)C(Cl)=C(C)C2O)c1C#N (stereo not shown)", "meas value": 3}
{"molecule": "CCc1onc(N2C(=O)C(Cl)=C(C)C2O)c1C#N (stereo not shown)", "meas value": 4}
{"molecule": "CCOC1=C(C)CN(c2cc(C(C)(C)C#N)on2)C1=O", "meas value": 3}
{"molecule": "CCC(=O)OC1C(C)=C(Cl)C(=O)N1c1cc(C(C)(C)C)on1 (stereo not shown)", "meas value": 4}
{"molecule": "CC1=C(Cl)C(=O)N(c2cc(C(C)(C)CO)on2)C1O (stereo not shown)", "meas value": 3}
{"molecule": "CC1=C(Cl)C(=O)N(c2noc(C(C)C)c2C#N)C1", "meas value": 5}
{"molecule": "CCCC1=C(Br)C(=O)N(c2noc(C(C)(C)C)c2C#N)C1OC(=O)CC (stereo not shown)", "meas value": 4}
{"molecule": "COC1=C(Br)C(=O)N(c2cc(C(C)(C)C)on2)C1O (stereo not shown)", "meas value": 5}
{"molecule": "COC1=C(OC)C(O)N(c2cc(C(C)(C)C)on2)C1=O (stereo not shown)", "meas value": 4}
{"molecule": "CC1=C(Cl)C(=O)N(c2noc(C(C)(C)C)c2Cl)C1O (stereo not shown)", "meas value": 5}
{"molecule": "CC1=C(Cl)C(=O)N(c2noc(C(C)(C)C)c2Br)C1O (stereo not shown)", "meas value": 5}
{"molecule": "CC1=C(Cl)C(=O)N(c2cc(C(C)(C)C)on2)C1OC(=O)c1sccc1Cl (stereo not shown)", "meas value": 0}
{"molecule": "C=C(C)CNC1=C(Cl)C(=O)N(c2cc(C(C)(C)C)on2)C1O (stereo not shown)", "meas value": 4}
{"molecule": "CCC1=C(Cl)C(=O)N(c2cc(C(C)(C)C#N)on2)C1O (stereo not shown)", "meas value": 5}
{"molecule": "CCCC1=C(Cl)C(=O)N(c2noc(C(C)C)c2C#N)C1O (stereo not shown)", "meas value": 1}
{"molecule": "CCC(C)(C)c1onc(N2C(=O)C(Cl)=C(C)C2O)c1C#N (stereo not shown)", "meas value": 5}
{"molecule": "CCCC1=C(Br)C(=O)N(c2noc(C(C)(C)C#N)c2C#N)C1OC(=O)CC (stereo not shown)", "meas value": 5}
{"molecule": "CCOCC(C)(C)c1cc(N2C(=O)C(Cl)=C(C)C2O)no1 (stereo not shown)", "meas value": 5}
{"molecule": "CC1=C(Cl)C(=O)N(c2cc(C(C)(C)C)on2)C1OC(=O)C(C)C (stereo not shown)", "meas value": 4}
{"molecule": "CC1=C(Br)C(=O)N(c2cc(C(C)(C)C)on2)C1O (stereo not shown)", "meas value": 4}
